This collection of values is drawn from ChEMBL document CHEMBL3112444.

Item-by-item account of GI50
test system: A-431; assay: Cytotoxicity against human A431 cells assessed as growth inhibition after 72 hrs by MTT assay; format: functional; settings: A-431, 72 h
Kindly provide the numeric value in µM only, without the unit symbol.

{"SMI": "O=C(NCc1ccc(Cl)c(Cl)c1)c1cc(Br)c(Br)[nH]1", "UNIT_DESCRIPTOR": "µM", "OBSERVED_RESULT": 20}
{"SMI": "O=C(NCCc1ccc(O)cc1)c1cc(Br)c(Br)[nH]1", "UNIT_DESCRIPTOR": "µM", "OBSERVED_RESULT": 20}
{"SMI": "O=C(NCc1ccc(-c2ccccc2)cc1)c1ccc[nH]1", "UNIT_DESCRIPTOR": "µM", "OBSERVED_RESULT": 5.8}

Data point: `O=C(NCc1ccc(-c2ccccc2)cc1)c1cc(Br)c(Br)[nH]1` ; GI50 = 3.7

Measured GI50, `O=C(NCc1ccc(Cl)cc1)c1cc(Br)c(Br)[nH]1` : 24

Just so you know, measured GI50 for `O=C(NCc1ccccc1)c1cc(Br)c(Br)[nH]1` came out at 22

// recorded GI50 for `O=C(NCC(c1ccccc1)c1ccccc1)c1cc(Br)c(Br)[nH]1` : 19

###

assay: Cytotoxicity against human H460 cells assessed as growth inhibition at 25 uM after 72 hrs by MTT assay relative to control; format: functional; settings: NCI-H460, 72 h, read-out: GI
Listed here are molecules together with their documented inhibition of growth at 25 µM.
Report as a plain number; the unit % is understood.

Reported inhibition of growth at 25 µM of `O=C(NCc1ccc(-c2ccccc2)cc1)c1cc(Br)c(Br)[nH]1` : 61

Measured inhibition of growth at 25 µM, `O=C(NCCCCc1ccccc1)c1ccc[nH]1` : 11

###

test: Cytotoxicity against human MIA cells assessed as growth inhibition at 25 uM after 72 hrs by MTT assay relative to control; assay type: functional; conditions: read-out: GI
Below, each entry is listed alongside its reported inhibition of growth at 25 µM.
Return type: number; implicit unit %.

Consider the worked cases shown below.
{"SMI": "O=C(NCc1ccc(Cl)c(Cl)c1)c1cc(Br)c(Br)[nH]1", "PARAMETER": "inhibition of growth at 25 µM", "UNIT_DESCRIPTOR": "%", "OBSERVED_RESULT": 77}
{"SMI": "O=C(NCc1ccc(Cl)cc1)c1cc(Br)c(Br)[nH]1", "PARAMETER": "inhibition of growth at 25 µM", "UNIT_DESCRIPTOR": "%", "OBSERVED_RESULT": 63}
{"SMI": "CCc1ccc(CCNC(=O)c2cc(Br)c(Br)[nH]2)cc1", "PARAMETER": "inhibition of growth at 25 µM", "UNIT_DESCRIPTOR": "%", "OBSERVED_RESULT": 31}

inhibition of growth at 25 µM recorded for this compound, `O=C(NCCc1c[nH]cn1)c1cc(Br)c(Br)[nH]1` , is 20

###

assay: Cytotoxicity against human MIA cells assessed as growth inhibition at 25 uM after 72 hrs by MTT assay relative to control; format: functional; settings: read-out: GI
Measured inhibition of growth at 25 µM, listed per entry for reference.
Field: numeric (%). Do not append units.

Some entries whose results are on file:
{"SMI": "O=C(NCCc1ccc2ccccc2c1)c1ccc[nH]1", "UNIT_DESCRIPTOR": "%", "inhibition of growth at 25 µM": 20}
{"SMI": "O=C(NCCCCc1ccccc1)c1ccc[nH]1", "UNIT_DESCRIPTOR": "%", "inhibition of growth at 25 µM": 15}
{"SMI": "O=C(NCCc1ccc2ccccc2c1)c1cc(Br)c(Br)[nH]1", "UNIT_DESCRIPTOR": "%", "inhibition of growth at 25 µM": 21}

inhibition of growth at 25 µM for `O=C(NCCc1ccc(O)cc1)c1ccc[nH]1` is 6

What the record says about `O=C(NCCCCc1ccccc1)c1cc(Br)c(Br)[nH]1` : inhibition of growth at 25 µM is 34

Item: `O=C(NCCCn1cccn1)c1cc(Br)c(Br)[nH]1` | inhibition of growth at 25 µM: 3

Query `COc1ccc(CNC(=O)c2cc(Br)c(Br)[nH]2)cc1` yields inhibition of growth at 25 µM of 14

response.value for `Cc1nccn1CCCNC(=O)c1ccc[nH]1` (field: inhibition of growth at 25 µM) = 4

Lab book: inhibition of growth at 25 µM of `O=C(NCC(c1ccccc1)c1ccccc1)c1cc(Br)c(Br)[nH]1` noted as 69

Measured inhibition of growth at 25 µM of `O=C(NCc1ccc(-c2ccccc2)cc1)c1cc(Br)c(Br)[nH]1` : 82

Noted for `CCc1ccc(CCNC(=O)c2ccc[nH]2)cc1` : its inhibition of growth at 25 µM reads 12

// inhibition of growth at 25 µM lookup, compound = `O=C(NCCCn1cccn1)c1ccc[nH]1` , result: 19

Short answer for `O=C(NCCc1c[nH]cn1)c1ccc[nH]1` : inhibition of growth at 25 µM was 7

###

test: Cytotoxicity against human H460 cells assessed as growth inhibition at 25 uM after 72 hrs by MTT assay relative to control; format: functional; details: NCI-H460, 72 h, read-out: GI
Reported inhibition of growth at 25 µM by item:

Entry `O=C(NCCCn1cccn1)c1ccc[nH]1` — recorded inhibition of growth at 25 µM = 14%

inhibition of growth at 25 µM reading for `O=C(NCc1ccc(-c2ccccc2)cc1)c1ccc[nH]1` : 59%

The recorded inhibition of growth at 25 µM for entry `O=C(NCc1ccc(Cl)cc1)c1ccc[nH]1` equals < 0%

Entry under test: `COc1ccc(CNC(=O)c2cc(Br)c(Br)[nH]2)cc1` . Its inhibition of growth at 25 µM was 13%

###

test system: SW480; assay: Cytotoxicity against human SW480 cells assessed as growth inhibition after 72 hrs by MTT assay; assay type: functional; conditions: SW480, 72 h
PARAMETER: GI50

Examples with answers:
{"SMI": "O=C(NCc1ccc(-c2ccccc2)cc1)c1cc(Br)c(Br)[nH]1", "EXPERIMENTAL_TARGET": "SW480", "GI50": "2.4 µM"}
{"SMI": "O=C(NCC(c1ccccc1)c1ccccc1)c1cc(Br)c(Br)[nH]1", "EXPERIMENTAL_TARGET": "SW480", "GI50": "34 µM"}
{"SMI": "O=C(NCc1ccc(-c2ccccc2)cc1)c1ccc[nH]1", "EXPERIMENTAL_TARGET": "SW480", "GI50": "4.3 µM"}
{"SMI": "O=C(NCc1ccc(Cl)c(Cl)c1)c1cc(Br)c(Br)[nH]1", "EXPERIMENTAL_TARGET": "SW480", "GI50": "33 µM"}
{"SMI": "O=C(NCc1ccccc1)c1cc(Br)c(Br)[nH]1", "EXPERIMENTAL_TARGET": "SW480", "GI50": "> 50 µM"}
{"SMI": "O=C(NCCc1ccc(O)cc1)c1cc(Br)c(Br)[nH]1", "EXPERIMENTAL_TARGET": "SW480", "GI50": "> 50 µM"}

Item: `Nc1ncc(/C=C/CNC(=O)c2cc(Br)c(Br)[nH]2)[nH]1` | GI50: > 50 µM

The value of GI50 measured for the molecule `O=C(NCc1ccc(Cl)cc1)c1cc(Br)c(Br)[nH]1` turned out to be 36 µM

###

# maps each entry to its inhibition of growth at 25 µM
experiment: Cytotoxicity against human SJ-G2 cells assessed as growth inhibition at 25 uM after 72 hrs by MTT assay relative to control; format: functional; settings: SJ-G2, 72 h, read-out: GI

As a guide, the following entries are already answered.
{"SMI": "O=C(NCCCc1ccccc1)c1cc(Br)c(Br)[nH]1", "inhibition of growth at 25 µM": "8%"}
{"SMI": "O=C(NCc1ccc(Cl)c(Cl)c1)c1ccc[nH]1", "inhibition of growth at 25 µM": "11%"}

Just so you know, measured inhibition of growth at 25 µM for `O=C(NCCCCc1ccccc1)c1ccc[nH]1` came out at 8%

Form field inhibition of growth at 25 µM, entry `O=C(NCCCc1ccccc1)c1ccc[nH]1` : 0%

So for `O=C(NCc1ccc(Cl)c(Cl)c1)c1cc(Br)c(Br)[nH]1` , the logged inhibition of growth at 25 µM turned out to be 70%

According to the records, this compound `O=C(NCc1ccc(Cl)cc1)c1cc(Br)c(Br)[nH]1` displays inhibition of growth at 25 µM of 42%

###

assay: Cytotoxicity against human SJ-G2 cells assessed as growth inhibition at 25 uM after 72 hrs by MTT assay relative to control; type: functional; settings: SJ-G2, 72 h, read-out: GI
PARAMETER: inhibition of growth at 25 µM (%)
Expressed in %, but write only the number.

{"SMI": "O=C(NCCc1ccc(O)cc1)c1cc(Br)c(Br)[nH]1", "inhibition of growth at 25 µM / %": 44}

Summary for this compound, `O=C(NCCc1ccccc1)c1cc(Br)c(Br)[nH]1` : inhibition of growth at 25 µM is 22
